log10 of dpm values by entry
# SYSTEM: κ-opioid receptor (Homo sapiens, UniProt P41145)
# METHOD DESCRIPTION: Radioligand receptor binding assay, competition with [3H]diprenorphine, κ-receptor
# MEASUREMENT CONTEXT: competition binding with κ-receptor, compound at 1 × 10^−5 M, [3H]diprenorphine 0.5 nM
Transform log10 | Measure dpm | Unit dpm

- MOLECULE: "O=C1CC(C(=O)N2CCc3ccccc3C2CN2CCCC2)c2ccccc21 (stereo not drawn)"
  log10 of dpm: 2.33
- MOLECULE: "COc1ccc2c(c1)C(CN1CCCC1)N(C(=O)C1CC(=O)c3ccccc31)CC2 (stereo not drawn)"
  log10 of dpm: 2.99

Short answer on κ-opioid receptor (Homo sapiens, UniProt P41145) for COc1ccc2c(c1)C(CN1CCCC1)N(C(=O)C1CC(=O)c3ccc(Cl)cc31)CC2 (stereo not drawn) , log10 of dpm: 2.45

For the molecule COc1ccc2c(c1)C(CN1CCCC1)N(C(=O)C1CC(=O)c3cc(OC)c(OC)cc31)CC2 (stereo not drawn) , the measured log10 of dpm on κ-opioid receptor (Homo sapiens, UniProt P41145) was 2.91

Entry COc1cc2c(cc1OC)C(CN1CCCC1)N(C(=O)C1CC(=O)c3cc(OC)c(OC)cc31)CC2 (stereo not drawn) , κ-opioid receptor (Homo sapiens, UniProt P41145) data, log10 of dpm value: 3.72

The value of log10 of dpm recorded for COc1ccc2c(c1)C(C(=O)N1CCc3ccccc3C1CN1CCCC1)CC2=O (stereo not drawn) when tested on κ-opioid receptor (Homo sapiens, UniProt P41145) reads 2.33

log10 of dpm on κ-opioid receptor (Homo sapiens, UniProt P41145) for COc1ccc2c(c1)C(C(=O)N1CCc3ccc(OC)cc3C1CN1CCCC1)CC2=O (stereo not drawn) is 2.90

# lookup: COc1cc2c(cc1OC)C(CN1CCCC1)N(C(=O)C1CC(=O)c3ccc(Cl)cc31)CC2 (stereo not drawn) on κ-opioid receptor (Homo sapiens, UniProt P41145), log10 of dpm = 3.36

Summary line: O=C1CC(C(=O)N2CCc3ccccc3C2CN2CCCC2)c2cc(Cl)ccc21 (stereo not drawn) , κ-opioid receptor (Homo sapiens, UniProt P41145), reported log10 of dpm = 2.30

---

# SYSTEM: UniProt:P41145
# METHOD DESCRIPTION: Radioligand receptor binding assay, competition with [3H]diprenorphine, κ-receptor
# MEASUREMENT CONTEXT: compound at 1 × 10^−5 M
ENDPOINT LABEL: inhibition rate % (%)
Express the result in % but write the number alone.

Past entries and their recorded results:
- MOLECULE: "COc1ccc2c(c1)C(C(=O)N1CCc3cc(OC)c(OC)cc3C1CN1CCCC1)CC2=O (stereo not drawn) [I-31]"
  inhibition rate % [%]: 11.2
- MOLECULE: "COc1cc2c(cc1OC)C(CN1CCCC1)N(C(=O)C1CC(=O)c3ccccc31)CC2 (stereo not drawn) [I-26]"
  inhibition rate % [%]: 51.9
- MOLECULE: "COc1cc2c(cc1OC)C(CN1CCCC1)N(C(=O)C1CC(=O)c3ccc(Cl)cc31)CC2 (stereo not drawn) [I-30]"
  inhibition rate % [%]: 40.6
- MOLECULE: "COc1ccc2c(c1)C(CN1CCCC1)N(C(=O)C1CC(=O)c3cc(OC)c(OC)cc31)CC2 (stereo not drawn) [I-15]"
  inhibition rate % [%]: 82.3
- MOLECULE: "COc1ccc2c(c1)C(C(=O)N1CCc3ccc(OC)cc3C1CN1CCCC1)CC2=O (stereo not drawn) [I-19]"
  inhibition rate % [%]: 82.9

Now turn to the next molecule.
Sample COc1cc2c(cc1OC)C(CN1CCCC1)N(C(=O)C1CC(=O)c3cc(OC)c(OC)cc31)CC2 (stereo not drawn) [I-27] ; inhibition rate % observed: 0
